# tgt: RAF kinases (Homo sapiens, UniProt P04049)
# Sequence (P04049 whole entry): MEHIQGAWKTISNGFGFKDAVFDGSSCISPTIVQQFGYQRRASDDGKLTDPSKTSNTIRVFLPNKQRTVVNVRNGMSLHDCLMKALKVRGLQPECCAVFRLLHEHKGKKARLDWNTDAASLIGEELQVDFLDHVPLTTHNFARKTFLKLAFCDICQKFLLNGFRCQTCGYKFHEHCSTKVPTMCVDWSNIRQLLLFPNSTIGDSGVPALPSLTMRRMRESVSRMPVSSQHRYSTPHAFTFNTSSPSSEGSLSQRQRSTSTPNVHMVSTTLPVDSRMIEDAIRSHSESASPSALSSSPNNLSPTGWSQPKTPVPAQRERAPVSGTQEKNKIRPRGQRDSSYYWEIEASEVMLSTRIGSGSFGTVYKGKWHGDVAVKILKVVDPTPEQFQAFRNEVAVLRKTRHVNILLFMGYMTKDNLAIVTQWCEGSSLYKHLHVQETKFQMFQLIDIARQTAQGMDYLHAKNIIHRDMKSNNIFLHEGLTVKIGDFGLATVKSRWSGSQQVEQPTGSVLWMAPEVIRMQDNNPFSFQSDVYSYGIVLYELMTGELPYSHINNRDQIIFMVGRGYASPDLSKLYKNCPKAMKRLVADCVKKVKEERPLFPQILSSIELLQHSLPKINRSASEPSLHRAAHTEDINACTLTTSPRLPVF
# testProtocol: biochemical
pKd: −log10 of the molar value.
readout: pKd

Inquiry: Given the compound COc1cc2ncnc(Oc3cccc(NC(=O)Nc4cc(C(C)(C)C#N)no4)c3)c2cc1OC [Ex 125] , what is its reported pKd?
Reply text: 6.30 to 6.60

Inquiry: Given the compound COc1cc2ncnc(Sc3cccc(NC(=O)Nc4cc(C(C)(C)F)no4)c3)c2cc1OCCCN1CCS(=O)(=O)CC1 [Ex 245] , what is its reported pKd?
Reply text: 6.30 to 6.60

Inquiry: Given the compound COc1cc2ncnc(Oc3cccc(NC(=O)Nc4cc(C(C)(C)C)nn4-c4ccc(C#N)cc4)c3)c2cc1OC [Ex 328] , what is its reported pKd?
Reply text: 6.30 to 6.60

Inquiry: Given the compound COc1cc2ncnc(Oc3cc(NC(=O)Nc4cc(C(F)(F)F)nn4-c4ccccc4)ccc3F)c2cc1OC [Ex 397] , what is its reported pKd?
Reply text: 6.00 to 6.30

Others:
Inquiry: Given the compound COCCOc1cc2ncnc(Sc3cccc(NC(=O)Nc4cc(C(C)(C)C)nn4-c4ccc(C)cc4)c3)c2cc1OC [Ex 277] , what is its reported pKd?
Reply text: < 6.00

Inquiry: Given the compound COc1cc2ncnc(Sc3cccc(NC(=O)Nc4cc(C(C)(C)C#N)nn4-c4ccccc4)c3)c2cc1OC [Ex 309] , what is its reported pKd?
Reply text: 6.00 to 6.30

Inquiry: Given the compound COc1cc2c(Oc3cccc(NC(=O)Nc4cc(C(C)(C)C)on4)c3)ncnc2cc1OCCCN1CCN(CCO)CC1 [Ex 30] , what is its reported pKd?
Reply text: 6.30 to 6.60

Inquiry: Given the compound COc1cc2c(Oc3cccc(NC(=O)Nc4cc(C(C)(C)C)on4)c3)ncnc2cc1OCCCN1CC[C@H](O)C1 [Ex 33] , what is its reported pKd?
Reply text: 6.30 to 6.60

Inquiry: Given the compound COc1cc2c(Oc3cccc(NC(=O)Nc4cc(C(C)(C)C)on4)c3)ncnc2cc1OCCCN1CC[C@@H](O)C1 [Ex 34] , what is its reported pKd?
Reply text: 6.30 to 6.60

Inquiry: Given the compound COc1cc2ncnc(Oc3cccc(NC(=O)Nc4ccc(Cl)c(C(F)(F)F)c4)c3)c2cc1OC [Ex 176] , what is its reported pKd?
Reply text: 6.30 to 6.60

Inquiry: Given the compound COCCOc1cc2ncnc(Sc3cccc(NC(=O)Nc4cc(C(C)(C)C)no4)c3)c2cc1OCCOC [Ex 247] , what is its reported pKd?
Reply text: 6.30 to 6.60

Inquiry: Given the compound COCCOc1cc2ncnc(Sc3cccc(NC(=O)Nc4cccc(C(C)(C)C#N)c4)c3)c2cc1OC [Ex 281] , what is its reported pKd?
Reply text: > 6.60

====

# tgt: RAF kinases (Homo sapiens)
# testProtocol: biochemical
pKd: −log10 of the molar value.
Items are presented alongside their recorded pKd.

Inquiry: Given the molecule COCCOc1cc2ncnc(Oc3cccc(NC(=O)Nc4cc(C(C)(CF)CF)on4)c3)c2cc1OC , what is its reported pKd?
Reply text: 6.30 to 6.60

Inquiry: Given the molecule COCCOc1cc2ncnc(Oc3cccc(NC(=O)Nc4cc(C(C)(C)C)no4)c3)c2cc1OC , what is its reported pKd?
Reply text: 6.30 to 6.60

Inquiry: Given the molecule COc1cc2ncnc(Sc3cccc(NC(=O)Nc4cc(C(C)(C)C)on4)c3)c2cc1OCCCN1CCC(CO)CC1 , what is its reported pKd?
Reply text: 6.30 to 6.60

Others:
Inquiry: Given the molecule COc1cc2ncnc(Sc3cccc(NC(=O)Nc4cc(C(C)(C)C)nn4-c4ccc(C#N)cc4)c3)c2cc1OC , what is its reported pKd?
Reply text: 6.30 to 6.60

Inquiry: Given the molecule COc1cc2ncnc(Sc3cccc(NC(=O)Nc4cc(C(C)(C)C)nn4C4CCCCC4)c3)c2cc1OC , what is its reported pKd?
Reply text: 6.00 to 6.30

Inquiry: Given the molecule COc1cc2ncnc(Oc3cccc(NC(=O)Nc4cc(C(C)(C)C)nn4-c4ccc(C(C)(C)C)cc4)c3)c2cc1OC , what is its reported pKd?
Reply text: 6.00 to 6.30

Inquiry: Given the molecule COc1cc2ncnc(Sc3cccc(NC(=O)Nc4cc(C(C)(C)C)nn4-c4cccnc4)c3)c2cc1OC , what is its reported pKd?
Reply text: 6.00 to 6.30

Inquiry: Given the molecule COc1cc2ncnc(Oc3cccc(NC(=O)Nc4cc(C(C)(C)CO)no4)c3)c2cc1OC , what is its reported pKd?
Reply text: 6.30 to 6.60

====

# Tested on: 290 distinct kinases tested excluding mutant variants (321 in the larger panel)
# testConditions: asterisk: panel of 321 distinct kinases
readout: S35

Inquiry: Given the compound COc1cc2ncnc(Sc3cccc(NC(=O)Nc4cc(C(F)(F)F)n(C)n4)c3)c2cc1OC [Ex 194] , what is its reported S35?
Reply text: C* (0.20 < C ≦ 0.40)

Inquiry: Given the compound COc1cc2c(Sc3cccc(NC(=O)Nc4cc(C(C)(C)F)no4)c3)ncnc2cc1OCCN1CCOCC1 [Ex 248] , what is its reported S35?
Reply text: C* (0.20 < C ≦ 0.40)

====

# tgt: RAF kinases (Homo sapiens)
# testConditions: read-out: RAF1 Kd; RAF1
readout: Kd

Observe how each entry below is paired with its result.
Inquiry: State its Kd on RAF kinases (Homo sapiens): COc1cc2ncnc(Oc3cccc(NC(=O)Nc4cc(C(C)(C)F)no4)c3F)c2cc1OC [Ex 296]
Reply text: < 250 nM

Inquiry: State its Kd on RAF kinases (Homo sapiens): COc1cc2ncnc(Oc3cc(NC(=O)Nc4cc(C(F)(F)F)nn4-c4ccccc4)c(F)cc3F)c2cc1OC [Ex 271]
Reply text: > 1000 nM

Others:
Inquiry: State its Kd on RAF kinases (Homo sapiens): COc1cc2ncnc(Sc3cccc(NC(=O)Nc4cc(C(C)C)nn4-c4cccnc4)c3)c2cc1OC [Ex 351]
Reply text: < 250 nM

Inquiry: State its Kd on RAF kinases (Homo sapiens): CCOc1cc2ncnc(Sc3cccc(NC(=O)Nc4cc(C(C)(C)F)no4)c3)c2cc1OC [Ex 389]
Reply text: < 250 nM

====

# tgt: UniProt:P15056
# Sequence (P15056 whole entry): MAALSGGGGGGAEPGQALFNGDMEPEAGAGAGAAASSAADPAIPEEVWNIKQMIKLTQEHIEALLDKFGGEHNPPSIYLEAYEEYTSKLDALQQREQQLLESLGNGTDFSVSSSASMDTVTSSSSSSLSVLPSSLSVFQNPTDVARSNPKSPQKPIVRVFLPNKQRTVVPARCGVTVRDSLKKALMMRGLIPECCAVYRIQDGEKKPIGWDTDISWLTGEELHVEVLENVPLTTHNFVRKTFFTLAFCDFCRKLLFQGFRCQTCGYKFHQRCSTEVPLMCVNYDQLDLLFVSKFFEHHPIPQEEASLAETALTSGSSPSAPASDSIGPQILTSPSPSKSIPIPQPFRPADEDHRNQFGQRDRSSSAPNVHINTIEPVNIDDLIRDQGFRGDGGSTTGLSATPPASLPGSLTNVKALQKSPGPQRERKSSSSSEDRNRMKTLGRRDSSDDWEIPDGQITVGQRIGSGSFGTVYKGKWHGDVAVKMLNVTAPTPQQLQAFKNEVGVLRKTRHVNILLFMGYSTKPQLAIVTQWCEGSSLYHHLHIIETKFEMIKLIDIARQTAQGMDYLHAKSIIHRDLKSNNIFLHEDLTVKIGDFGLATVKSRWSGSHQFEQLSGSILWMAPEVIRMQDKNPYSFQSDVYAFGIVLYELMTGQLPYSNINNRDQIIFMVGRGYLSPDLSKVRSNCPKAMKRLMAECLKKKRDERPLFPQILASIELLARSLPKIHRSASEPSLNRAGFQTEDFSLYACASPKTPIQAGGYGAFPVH
# testProtocol: biochemical
pKd: −log10 of the molar value.
Items are presented alongside their recorded pKd.

Inquiry: Given the compound COc1cc2ncnc(Sc3cccc(NC(=O)Nc4cc(C(C)(CF)CF)no4)c3)c2cc1OC , what is its reported pKd?
Reply text: 6.00 to 6.30

Inquiry: Given the compound COc1cc2c(Oc3cccc(NC(=O)Nc4cc(C(C)(C)C)on4)c3)ncnc2cc1O[C@H]1CCN(C)C1 [Ex 97, mono acetate] , what is its reported pKd?
Reply text: 6.30 to 6.60

Inquiry: Given the compound COc1cc2c(Sc3cccc(NC(=O)Nc4cc(C(C)(C)C)on4)c3)ncnc2cc1OCCCN1CCN(CCO)CC1 , what is its reported pKd?
Reply text: 6.30 to 6.60

Inquiry: Given the compound COc1cc2c(Oc3cccc(NC(=O)Nc4cc(C(C)(C)C)on4)c3)ncnc2cc1O[C@@H]1CCN(C)C1 [Ex 99, mono acetate] , what is its reported pKd?
Reply text: 6.30 to 6.60

Inquiry: Given the compound COCCOc1cc2ncnc(Sc3cccc(NC(=O)Nc4cc(C(C)(C)F)no4)c3)c2cc1OC , what is its reported pKd?
Reply text: 6.30 to 6.60

Others:
Inquiry: Given the compound COc1cc2ncnc(Oc3cccc(NC(=O)Nc4ccc(Cl)c(C(F)(F)F)c4)c3)c2cc1OC , what is its reported pKd?
Reply text: 6.00 to 6.30

Inquiry: Given the compound COc1cc2ncnc(Oc3cccc(NC(=O)Nc4cc(C(F)(F)F)nn4-c4cccc(C)c4)c3)c2cc1OC , what is its reported pKd?
Reply text: 6.00 to 6.30

Inquiry: Given the compound COc1cc2ncnc(Oc3cccc(NC(=O)Nc4cc(C(C)(F)F)no4)c3)c2cc1OC , what is its reported pKd?
Reply text: 6.30 to 6.60

Inquiry: Given the compound COc1cc2ncnc(Oc3cccc(NC(=O)Nc4cc(C(C)(C)C)nn4-c4ccc(C#N)cc4)c3)c2cc1OC , what is its reported pKd?
Reply text: 6.30 to 6.60

Inquiry: Given the compound COCCOc1ccc2c(Oc3cccc(NC(=O)Nc4cc(C(C)(C)C)on4)c3)ncnc2c1 , what is its reported pKd?
Reply text: 6.00 to 6.30

Inquiry: Given the compound COCCOc1cc2ncnc(Oc3cccc(NC(=O)Nc4cc(C5CCCC5)no4)c3)c2cc1OC , what is its reported pKd?
Reply text: 6.00 to 6.30

Inquiry: Given the compound COCCOc1cc2ncnc(Oc3cccc(NC(=O)Nc4cc(-c5ccccc5)on4)c3)c2cc1OC , what is its reported pKd?
Reply text: < 6.00

Inquiry: Given the compound CC(C)(C)c1cc(NC(=O)Nc2cccc(Oc3ncnc4ccc(-c5ccc(CNCCS(C)(=O)=O)o5)cc34)c2)no1 , what is its reported pKd?
Reply text: 6.00 to 6.30
